test: gradient 5% acetonitrile 3 min, to 50% in 2 min, to 85% in 15 min, held 3 min, 100 µL/min; details: column: Zorbax Extend-C18 2.1 x 50 mm; eluents: water / acetonitrile, 0.1% formic acid
OBSERVATION_TYPE: RP-LC retention time (s)

Example entries begin here.
>>> numeric_readout("O=C1C2N=NN(Cc3nc(-c4cccc(Cl)c4)no3)C2C(=O)N1c1ccc2c(c1)CCC2 (stereo not given)")
1130
>>> numeric_readout("Cc1ccc(C(=O)N2CCCCCCNC(=O)[C@@H]3CCC[C@@H]32)s1")
792
>>> numeric_readout("Cn1nc2n(c1=O)CCC(NC(=O)c1cc(C3CC3)[nH]n1)CC2 (stereo not given)")
586

a: Cc1nc2cc(-c3noc(-c4ccccc4)n3)ccc2o1
b: COc1ccc(-c2nc3ccccn3c2Nc2ccc(Cl)cc2)cc1
QUERY: Could you point out whether the larger RP-LC retention time belongs to a or to b ? Answer with the label corresponding to your selection.
RESULT: a
